The origin of these recorded values is BindingDB's records for doi:10.7270/Q2TX3CTT.

# target.or.test.system: Glycogen synthase kinase-3 beta (Homo sapiens)
# Sequence (P49841 whole entry): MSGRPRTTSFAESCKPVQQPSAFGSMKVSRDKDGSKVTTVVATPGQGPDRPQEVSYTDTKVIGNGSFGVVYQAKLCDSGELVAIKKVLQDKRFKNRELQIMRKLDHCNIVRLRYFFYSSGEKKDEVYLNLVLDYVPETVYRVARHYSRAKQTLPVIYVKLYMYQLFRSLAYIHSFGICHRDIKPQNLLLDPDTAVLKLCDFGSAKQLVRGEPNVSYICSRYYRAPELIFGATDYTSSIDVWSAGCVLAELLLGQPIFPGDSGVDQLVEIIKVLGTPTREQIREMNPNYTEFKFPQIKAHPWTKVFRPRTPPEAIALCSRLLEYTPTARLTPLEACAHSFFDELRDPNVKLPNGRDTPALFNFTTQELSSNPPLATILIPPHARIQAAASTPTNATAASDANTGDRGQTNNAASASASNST
# assay.comment: concentration-response blocking of human GSK3B – biochemical, luminescence, cell-free homogeneous, retest, dose response (AID 434954)
Each entry below lists one item and its recorded EC50 value.

molecule: CC(=O)c1ccc(NC(=O)CN2C(=O)CCC2=O)cc1
EC50: > 300 µM
--
molecule: CCOC(=O)CNC(=O)CSc1ccc2nnc(-c3cccnc3)n2n1
EC50: > 300 µM
--
molecule: Cn1c(=O)c2[nH]c(CCCC(=O)O)nc2n(Cc2ccccc2)c1=S
EC50: 5.17 µM
--
molecule: COc1ccc(Nc2nc(N)c(C(=O)c3ccc(F)cc3)s2)cc1
EC50: 0.662 µM
--
molecule: CCn1c(C=CN(C(C)=O)c2ccccc2)[n+](CC)c2cc(Cl)ccc21
EC50: > 300 µM

Input O=C(Nc1ccncc1)Nc1ccncc1 , output reported EC50.
> 300 µM

For CC(C)CNc1nc(N)c([N+](=O)[O-])c(NCC2CCCO2)n1 (configuration not stated) , write its EC50.
6.1 µM

Specify measured EC50 for CC(Cl)C(=O)Nc1ncc(C(F)(F)F)cc1Cl (configuration not stated) .
> 300 µM

Note EC50 for the molecule shown: Cc1[nH]nc2c1C(c1ccc(N(C)C)cc1)C1C(=O)CC(C)(C)CC1=N2 (configuration not stated)
28 µM

Given CCN(CC)Cc1c(C(=O)NN=Cc2cccs2)nnn1-c1nonc1N , respond with its EC50.
5.16 µM

For the molecule CC(C)Cc1ccccc1O , report EC50.
> 300 µM
